# Test system: NCI-H1048 cells
# Assay method text: MTT proliferation assay, NCI-H1048;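 also: Dose-response in 96-well plates over 8 or 10 concentration points, with exposure spanning 3-4 cell doublings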
# Type: cell-based
# Condition label: 5 days compound exposure, 1:3 serial dilution starting at 10 μM
*1 amine or outer side, *2 acyl side, *3 side chain or, on linkers, in order; H or OH if unused. Where a SMILES comes first, the peptide text is derived from it. Bridges are numbered along the chain shown (N, C = ends). [ ]: non-standard residue; d: D form. The star is where a group is joined. X48 = CN(C)C[C@H]1CN(c2ccc(-c3ccc(Cl)cc3C[C@@H](C(=O)[*:2])N(C)[*:1])cc2)CCO1; X18 = CC(=O)N1CCC(=Cc2ccc(Cl)cc2C[C@@H](C(=O)[*:2])N(C)[*:1])CC1; NMehhhLys(Me) = CN([C@@H](CCCCCCCN(C)[*:3])C(=O)[*:2])[*:1]; X109 = CN([C@@H](Cc1cc(Cl)ccc1-c1ccncc1)C(=O)[*:2])[*:1]; X163 = CN([C@@H](Cc1cc(Cl)ccc1N1CCOCC1)C(=O)[*:2])[*:1]; Cyclobutanecarbonyl(1-CF3) = O=C(C1(C(F)(F)F)CCC1)*; cBuCO(3,3-F2-1-CF3) = O=C(C1(C(F)(F)F)CC(F)(F)C1)*; X25 = CCOc1ncc(Cl)cc1C[C@@H](C(=O)[*:2])N(C)[*:1]; Pro(trans-4-F) = O=C(O)[C@@H]1C[C@@H](F)CN1; Gly(cPr) = N[C@H](C(=O)O)C1CC1
Assay endpoint: GI50 (nM)
Please respond with the number in nM and leave the unit unwritten.

**Query** Look up GI50: CCOc1ncc(Cl)cc1C[C@H]1C(=O)N(C)CCCCCCC[C@H](N(C)C(=O)[C@@H](NC(=O)[C@@H]2C[C@@H](F)CN2C(=O)C2(C(F)(F)F)CCC2)C2CC2)C(=O)N[C@@H](CC(C)C)C(=O)N1C [Example 227] ({Cyclobutanecarbonyl(1-CF3)}-[Pro(trans-4-F)][Gly(cPr)][NMehhhLys(Me)]L[X25]; lactam 3-C)
**Result** 20

**Query** Continue with CC(C)C[C@@H]1NC(=O)[C@@H](N(C)C(=O)[C@@H](NC(=O)[C@@H]2C[C@@H](F)CN2C(=O)C2(C(F)(F)F)CC(F)(F)C2)C2CC2)CCCCCCCN(C)C(=O)[C@H](Cc2cc(Cl)ccc2N2CCOCC2)N(C)C1=O [Example 319] ({cBuCO(3,3-F2-1-CF3)}-[Pro(trans-4-F)][Gly(cPr)][NMehhhLys(Me)]L[X163]; lactam 3-C)
**Result** 10

**Query** Continue with CC(C)C[C@@H]1NC(=O)[C@@H](N(C)C(=O)[C@@H](NC(=O)[C@@H]2C[C@@H](F)CN2C(=O)C2(C(F)(F)F)CC(F)(F)C2)C2CC2)CCCCCCCN(C)C(=O)[C@H](Cc2cc(Cl)ccc2-c2ccc(N3CCO[C@@H](CN(C)C)C3)cc2)N(C)C1=O [Example 410] ({cBuCO(3,3-F2-1-CF3)}-[Pro(trans-4-F)][Gly(cPr)][NMehhhLys(Me)]L[X48]; lactam 3-C)
**Result** 10

**Query** Continue with CC(=O)N1CCC(=Cc2ccc(Cl)cc2C[C@H]2C(=O)N(C)CCCCCCC[C@H](N(C)C(=O)[C@@H](NC(=O)[C@@H]3C[C@@H](F)CN3C(=O)C3(C(F)(F)F)CC(F)(F)C3)C3CC3)C(=O)N[C@@H](CC(C)C)C(=O)N2C)CC1 [Example 289] ({cBuCO(3,3-F2-1-CF3)}-[Pro(trans-4-F)][Gly(cPr)][NMehhhLys(Me)]L[X18]; lactam 3-C)
**Result** 10

**Query** Continue with `CC(C)C[C@@H]1NC(=O)[C@@H](N(C)C(=O)[C@@H](NC(=O)[C@@H]2C[C@@H](F)CN2C(=O)C2(C(F)(F)F)CC(F)(F)C2)C2CC2)CC=CCCCCN(C)C(=O)[C@H](Cc2cc(F)ccc2C2=CCCC2)N(C)C1=O`
**Result** 720

**Query** Continue with CC(C)C[C@@H]1NC(=O)[C@@H](N(C)C(=O)[C@@H](NC(=O)[C@@H]2C[C@@H](F)CN2C(=O)C2(C(F)(F)F)CC(F)(F)C2)C2CC2)CCCCCCCN(C)C(=O)[C@H](Cc2cc(Cl)ccc2-c2ccncc2)N(C)C1=O [Example 192] ({cBuCO(3,3-F2-1-CF3)}-[Pro(trans-4-F)][Gly(cPr)][NMehhhLys(Me)]L[X109]; lactam 3-C)
**Result** 20
